TGI values, listed per item
- System: EKVX NSCLC
- test.protocol: NCI tumour cell line growth inhibition, 48 h

See these solved cases before continuing.
| compound | test.target | value.observed |
| --- | --- | --- |
| CO/C=C1\OC(=O)C=C1OC | EKVX NSCLC | > 100 µM |
| O=C1C(Cl)=C(Cl)C(=O)N1c1cccc(C(F)(F)F)c1 | EKVX NSCLC | > 100 µM |
| O=C(/C=C/c1ccccc1)c1cc(C(=O)/C=C/c2ccccc2)c(O)cc1O | EKVX NSCLC | > 100 µM |

-- ask TGI for COc1ccc(C2Oc3c(cccc3-c3c(-c4ccc(O)cc4)oc4cc(O)cc(O)c4c3=O)C(=O)C2O)cc1O (stereo not given) ?
-- reply > 100 µM

-- ask TGI for Cc1cccc2c1Sc1ccccc1C2NC(=O)CN(C)C (stereo not given) ?
-- reply > 100 µM

-- ask TGI for Clc1ccc(C(Cc2ccccc2)c2c(Cl)nc(N3CCNCC3)nc2Cl)cc1 (stereo not given) ?
-- reply 32.2 µM

---

TGI values, listed per item
- System: UACC-62 melanoma
- test.protocol: NCI tumour cell line growth inhibition, 48 h
Report as a plain number; the unit µM is understood.

See these solved cases before continuing.
| compound | uom | value.observed |
| --- | --- | --- |
| C=C1C(=O)O[C@@H]2CC(CO)=C([C@@H](C)CCCO)[C@@H](OC(=O)/C(C)=C\C)[C@H]12 | µM | 47.8 |
| COc1ccc2cc(CN3CCC(C4CCN(Cc5ccc6cc(OC)ccc6c5)CC4)CC3)ccc2c1 | µM | 3.74 |
| CC1=NN(c2cccc(Cl)c2)C(=O)/C1=C\C=C\c1ccccc1 | µM | 3.87 |
| CCCCSc1nc(N)c2cn[nH]c2n1 | µM | 40.8 |

-- ask TGI for "Cc1ccc(N=Nc2c(O)ccc3n[nH]nc23)cc1" ?
-- reply 47.7

-- ask TGI for "NNC(=O)c1cc([N+](=O)[O-])ccc1NC(=O)C12CC3CC(CC(C3)C1)C2" ?
-- reply 28

-- ask TGI for "CC(=O)c1ccc2c3c1[C@H]1O[C@H]1c1cccc(c1-3)[C@@H]1O[C@H]21" ?
-- reply 4.15

-- ask TGI for "Cc1cc(S(=O)(=O)NC2=NCCCN2)c(S)cc1Cl" ?
-- reply 90.3

-- ask TGI for CC1CC(=NC2CCCCC2)Nc2ccccc2N1Cc1ccccc1 (stereo not given) ?
-- reply 3.69

-- ask TGI for "COc1ccc(/C=C2\COc3ccc(O)c(O)c3C2=O)cc1OC" ?
-- reply 2.86

---

- Tested on: K-562 leukemia
- test.protocol: NCI tumour cell line growth inhibition, 48 h
experimental.endpoint: GI50

| compound | value.observed |
| --- | --- |
| CNCC(=O)NC(CO)C(=O)NC(CO)C(=O)NC1C(C(N)=O)OC(n2ccc(N)nc2=O)C(O)C1O (stereo not drawn) | > 50 µg/mL |
| CC1=CC(C)(C)Nc2ccc(Cc3ccc4c(c3)C(C)=CC(C)(C)N4)cc21 | 3.6 µM |
| Cc1ccc(N=Nc2c(O)ccc3n[nH]nc23)cc1 | 9.06 µM |
| Cc1c(Cl)cccc1NC(=O)c1sc2nc3c(cc2c1N)C(=O)CCC3 | 0.0371 µM |

-- ask Query for K-562 leukemia: what GI50 does the record show for "CCC[CH2][Sn]([CH2]CCC)([O]C(=O)c1cc(F)ccc1F)[O]C(=O)c1cc(F)ccc1F" ?
-- reply 0.294 µM

-- ask Query for K-562 leukemia: what GI50 does the record show for "CCN(CC)S(=O)(=O)c1cccc(-c2ccc3c(NC(=O)C4CC4)n[nH]c3c2)c1" ?
-- reply 0.381 µM

-- ask Query for K-562 leukemia: what GI50 does the record show for "O=C(N=Nc1c(Cl)c(O)c2ccccc2c1O)C(=O)Nc1cccc(C(F)(F)F)c1" ?
-- reply 3.94 µM

-- ask Query for K-562 leukemia: what GI50 does the record show for "COC(=O)c1ccc(NC(=O)c2ccc(NC3=C(Cl)C(=O)N(Cc4ccccc4)C3=O)cc2)cc1" ?
-- reply 19 µM

The origin of these recorded values is PubChem BioAssay (NCI).
